# Condition details: in sec-butanol, 293.15 K
Measure: solubility (mole fraction)
Output: the number by itself.

Recorded solubility (mole fraction) of `O=C[C@H](O)[C@H](O)[C@H](O)CO` , please. 0.00567

====

# Condition details: in acetonitrile, 283.15 K
Measure: solubility (mole fraction)
Just the number.

Which value of solubility (mole fraction) has been reported for `O=C[C@H](O)[C@H](O)[C@H](O)CO` in the records? 0.00109

====

# Condition details: in ethanol, 283.15 K
Measure: solubility (mole fraction)
Please state the value as a number alone, without comment.

Given the compound `O=C[C@H](O)[C@H](O)[C@H](O)CO` , what is its reported solubility (mole fraction)? 0.00798
